assay: Stability of CGA acyl analogues in methanol solution (HPLC); type: physicochemical; conditions: 25 °C, day 11
metricName: Amount remaining in methanol (HPLC area) (%)

compound: CC(C)(C)C(=O)Oc1ccc(/C=C/C(=O)OC2CCCCC2)cc1OC(=O)C(C)(C)C [Compound 13c]
Amount remaining in methanol (HPLC area) (%): 96.8033

[a] O=C(/C=C/c1ccc(OC(=O)C2CCCCC2)c(OC(=O)C2CCCCC2)c1)OC1CCCCC1 [Compound 13d]
[b] CC(=O)Oc1ccc(/C=C/C(=O)OC2CCCCC2)cc1OC(C)=O
Problem: Which of the two items, a and b , has the greater recorded Amount remaining in methanol (HPLC area)? Label of pick, please.
Result: a

====

experiment: Stability of CGA acyl analogues in methanol solution (HPLC); assay type: physicochemical; conditions: 25 °C, day 3
metricName: Amount remaining in methanol (HPLC area) (%)

Some compounds with known Amount remaining in methanol (HPLC area) results, for comparison:
compound: O=C(/C=C/c1ccc(OC(=O)C2CCCCC2)c(OC(=O)C2CCCCC2)c1)OC1CCCCC1 [Compound 13d]
recordedValue: 94.6557
//
compound: CCCC(=O)Oc1ccc(/C=C/C(=O)OC2CCCCC2)cc1OC(=O)CCC [Compound 13a]
recordedValue: 80.3685
//
compound: CCCCCC(=O)Oc1ccc(/C=C/C(=O)OC2CCCCC2)cc1OC(=O)CCCCC [Compound 13b]
recordedValue: 86.8066

[a] CC(C)(C)C(=O)Oc1ccc(/C=C/C(=O)OC2CCCCC2)cc1OC(=O)C(C)(C)C [Compound 13c]
[b] CC(=O)Oc1ccc(/C=C/C(=O)OC2CCCCC2)cc1OC(C)=O
Problem: Which of the two items, a and b , has the greater recorded Amount remaining in methanol (HPLC area)? Label of pick, please.
Result: a
